Target: T1, CRF2R
T1 sequence (Q13324 whole entry, species assumed, looked up): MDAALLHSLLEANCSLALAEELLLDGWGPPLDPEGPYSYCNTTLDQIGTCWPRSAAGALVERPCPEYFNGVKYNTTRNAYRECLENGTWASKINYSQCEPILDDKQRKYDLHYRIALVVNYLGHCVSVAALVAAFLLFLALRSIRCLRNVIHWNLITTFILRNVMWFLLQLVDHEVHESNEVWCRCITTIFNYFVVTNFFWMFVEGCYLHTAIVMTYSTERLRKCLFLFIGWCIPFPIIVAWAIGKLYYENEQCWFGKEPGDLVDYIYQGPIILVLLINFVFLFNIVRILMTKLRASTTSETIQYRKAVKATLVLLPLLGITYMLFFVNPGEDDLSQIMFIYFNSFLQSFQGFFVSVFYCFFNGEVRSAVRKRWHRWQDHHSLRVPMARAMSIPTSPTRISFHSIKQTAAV
Experiment: cell-based or functional assay
Ends that are not written are not given here.
Each item that follows carries a reported CRF2R Emax.

binder	CRF2R Emax, %
ZGPPISIDLPFQLLRKMIEIEKQEKEKQQATTNARLLDTV (C-terminal amide) [SEQ ID NO 20]	99
DNPSLSIDLPFLLLRTLLELARTQSQRERAEQNAIIFASV-NH2 [SEQ ID NO 180]	95.7
ZGPPISIDLPIVLLRKMIEIEKQEKEKQQAANNRLLLDTI (C-terminal amide) [SEQ ID NO 31]	100
